- ASSAYED_SYSTEM: Human Cb-1 receptor (transfected CHO-K1 cell membranes) (Homo sapiens)
- Construct: host or cells: CHO-K1
- Sequence (P21554 whole entry): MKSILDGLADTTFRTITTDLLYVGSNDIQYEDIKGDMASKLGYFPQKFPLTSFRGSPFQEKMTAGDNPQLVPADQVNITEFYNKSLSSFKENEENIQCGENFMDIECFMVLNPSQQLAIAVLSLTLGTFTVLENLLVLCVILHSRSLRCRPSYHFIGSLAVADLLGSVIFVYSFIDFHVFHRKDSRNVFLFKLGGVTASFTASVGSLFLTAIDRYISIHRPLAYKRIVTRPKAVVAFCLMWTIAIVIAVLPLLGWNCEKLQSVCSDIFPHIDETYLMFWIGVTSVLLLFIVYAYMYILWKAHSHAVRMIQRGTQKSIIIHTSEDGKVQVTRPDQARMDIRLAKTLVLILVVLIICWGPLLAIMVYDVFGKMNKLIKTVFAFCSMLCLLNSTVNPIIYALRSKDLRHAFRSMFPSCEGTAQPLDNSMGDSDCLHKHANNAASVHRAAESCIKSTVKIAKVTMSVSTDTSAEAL
- TEST_SUMMARY: Cb-1 competition receptor binding in cell membranes ([3H]CP55,940 displacement)
- PARTICULARS: 3H-CP55,940 0.5 nM, 1 hour at 25° C.
y if Example C1 Binding pIC50 is below 6. n if not; exact matches included in n.

Answered cases to consult:
[
  {
    "MOLECULE": "Clc1ccc(C(c2ccc3nnn(-c4ccccc4)c3c2)n2ccnc2)cc1 (stereo not shown) [Compound 10]",
    "LABEL_CLASS": "n"
  },
  {
    "MOLECULE": "CC(C)n1nnc2ccc(C(c3ccc(Cl)cc3)n3cncn3)cc21 (stereo not shown) [Compound 7]",
    "LABEL_CLASS": "n"
  },
  {
    "MOLECULE": "Clc1ccc(C(c2ccc3nnn(Cc4ccccc4)c3c2)n2ccnc2)cc1 (stereo not shown) [Compound 13]",
    "LABEL_CLASS": "y"
  }
]

Please determine if CC(C)n1nnc2ccc(C(c3ccc(Cl)cc3)n3ccnc3)cc21 (stereo not shown) [Compound 12] is below 6 in terms of Example C1 Binding pIC50. y

Let us now turn to CCCCn1nnc2ccc(C(c3ccc(Cl)cc3)n3cncn3)cc21 (stereo not shown) [Compound 8] n

Now the same for CC(c1ccccc1)n1nnc2ccc(C(c3ccc(Cl)cc3)n3ccnc3)cc21 (stereo not shown) [Compound 11] y
